Recorded 1/α values for a group of molecules are listed next.
- Test system: DOHH2 cells
- Method Description: Medium throughput combination proliferation assay (CellTiter-Glo, Chou-Talalay CI / potency shift)
- Run Conditions: DOHH2; combination with Compound 44; data normalized to individual 6438 concentrations instead of DMSO
// no unit, no text: just the number

Some entries whose results are on file:
Molecule	1/α
COc1cc(Nc2ncc(F)c(Nc3ccc4c(n3)NC(=O)C(C)(C)O4)n2)cc(OC)c1OC [Tamatinib]	0.81
NC1(c2ccc(-c3nc4ccn5c(=O)[nH]nc5c4cc3-c3ccccc3)cc2)CCC1 [MK-2206]	0.64

Recorded 1/α for C=CC(=O)N1CCC[C@@H](n2nc(-c3ccc(Oc4ccccc4)cc3)c3c(N)ncnc32)C1 [Ibrutinib] , please? 0.67

Another molecule: C[C@@H]1C[C@H]2[C@@H]3CCC4=CC(=O)C=C[C@]4(C)[C@@]3(F)[C@@H](O)C[C@]2(C)[C@@]1(O)C(=O)CO [Dexamethasone] 4.2

Data provenance: patent US10463671B2
